- Test system: rgRSV224 virus
- assay info: Antiviral activity: rgRSV224 (GFP) replication in HeLa cells
- Format: cell-based, respiratory syncytial virus (RSV)
- condition set: human respiratory syncytial virus, HeLa, 72 h, read-out: RSV HELA EC50 (μM), rgRSV224 virus (MOI=1), HeLa cells, GFP expression three days post-virus exposure

compound	EC50
C[C@@H]1c2ccccc2CCN1C(=O)c1cc(C2CC2)n2nc(-c3ccc(N4CC(O)C4)cc3F)cc2n1	0.03 µM
C[C@@H]1c2ccccc2CCN1C(=O)c1cc(C2CC2)n2nc(-c3ccc(N4CCC(S(N)(=O)=O)C4)cc3F)cc2n1 (stereo partly drawn)	0.041 µM
CO[C@H]1CN(c2ccc(-c3cc4nc(C(=O)N5CCc6ccccc6[C@H]5C)cc(C5CC5)n4n3)c(F)c2)C[C@@H]1O (stereo in doubt)	0.05 µM
